The reported measurements were obtained from PubChem BioAssay AID192.

Test system: BDF1 mice, B16 melanoma ip, median survival T/C
Assay: NCI In Vivo Anticancer Drug Screen. Data for tumor model B16 Melanoma (intraperitoneal) in B6D2F1 (BDF1) mice
Conditions: endpoint: median survival time; dose: 5.0 mg/kg/injection; schedule: Q01DX009 (ip); vehicle: Klucel (hydroxypropylcellulose) (HPC); higher = longer survival
Inconclusive results and toxic doses are left out.
Reported T/C is given for each of the following molecules.
testReadout: T/C

molecule	testReadout	assayResult
CCCCCCCC(=O)O[C@H]1[C@H]2[C@@H](CC1(C)C)C(=O)[C@]13O[C@H]1C(=O)[C@]1(CO1)[C@]23C	T/C	90 % of control
CCCCCCCCCCCCCCCCCC(=O)[O][Pb]([CH3])([CH3])[CH3]	T/C	91 % of control
COc1cc2c(c(OC)c1O)-c1ccc(OC)c(=O)cc1[C@@H](NC(=O)C(F)(F)F)CC2	T/C	118 % of control
COc1cc2cc3c4ccccc4cc[n+]3c(C)c2cc1OC (tested in a mixture with another compound)	T/C	99 % of control
CC1(C)CC[C@H](C2=CC(=O)c3c(O)ccc(O)c3C2=O)O1	T/C	97 % of control
Cc1[nH]c(=O)[nH]c(=O)c1N(CCF)CCCl	T/C	100 % of control
CC(C)=CCC(O)C1=CC(=O)c2c(O)ccc(O)c2C1=O (configuration not stated)	T/C	92 % of control

---

Items are presented alongside their recorded T/C.
Tested on: BDF1 mice, B16 melanoma ip, median survival T/C
Test: NCI In Vivo Anticancer Drug Screen. Data for tumor model B16 Melanoma (intraperitoneal) in B6D2F1 (BDF1) mice
Settings: endpoint: median survival time; dose: 12.5 mg/kg/injection; schedule: Q04DX003 (ip); vehicle: saline with Tween-80; higher = longer survival
Procedure: The antitumor activity of compounds was measured in mice bearing transplantable tumors. Survival or tumor size were measured and the results are expressed as the measurement made in the treated group (T) divided by the measurement made in the vehicle treated control group (C). The tumor model used in this assay is B16 Melanoma (intraperitoneal) in B6D2F1 (BDF1) mice
Toxic doses and inconclusive results are not listed.

compound	T/C
Oc1c(Cl)c(Cl)c(Cl)c(Cl)c1Cl (tested in a mixture with another compound)	122 % of control
O=C(CC(=Nc1ccccc1)c1ccccc1)c1ccccc1.O=C(CC(=Nc1ccccc1)c1ccccc1)c1ccccc1.[Cu]	86 % of control
COc1ccc(N=C=S)cc1N=C=S	115 % of control
CCN=NNc1ccc(C)cc1	101 % of control
CCCCCCCCCCCCCCCCN(C)S(=O)(=O)c1ccc2sc(SC)[n+](C)c2c1 (tested in a mixture with another compound)	100 % of control
Clc1c(Cl)c(CBr)c(Cl)c(CBr)c1Cl	86 % of control
COC(=O)C(CCCCN=Cc1ccccc1O)N=Cc1ccccc1O.[Ni] (stereo not given)	95 % of control
CC1=CCC=C(CNc2ncnc3nc[nH]c23)C1	100 % of control
COc1ccc(NC2=CC(C)(C(=O)O)OC2=O)cc1 (stereo not given)	93 % of control
CN(C)CCCN=Cc1ccc(O)cc1O.CN(C)CCCN=Cc1ccc(O)cc1O.[Ni+2]	117 % of control

---

Tested on: BDF1 mice, B16 melanoma ip, median survival T/C
Assay: NCI In Vivo Anticancer Drug Screen. Data for tumor model B16 Melanoma (intraperitoneal) in B6D2F1 (BDF1) mice
Conditions: endpoint: median survival time; dose: 100.0 mg/kg/injection; schedule: Q01DX009 (ip); vehicle: Klucel (hydroxypropylcellulose) (HPC); higher = longer survival
Toxic doses and inconclusive results are not listed.
In this section, each of the molecules is paired with its reported T/C.

molecule	T/C
O=C(/C=C/c1ccc2c(c1)OCO2)c1ccc2c(c1)OCO2	100 % of control
CCN(CC)CCCC#CCN1CCCC1	93 % of control
COc1ccccc1NC(N)=S	100 % of control
Cc1cc(C)c(NC(=O)Nc2ccccc2)c(C)c1	108 % of control
C[C@]12CC[C@H](O)C[C@@H]1CC[C@@H]1[C@@H]2C(=O)C[C@@]2(C)[C@H]1CC[C@]2(O)C(=O)CBr	93 % of control
Cc1ccc(Nc2ccc([N+](=O)[O-])cc2[N+](=O)[O-])c(C)c1	93 % of control
CNC(Cc1ccccc1)c1ccc(OC)cc1 (stereo unspecified)	96 % of control
CCOc1cc(N)ccc1C	93 % of control
Cc1oc2c(c(=O)c1C)C1CCC(C2)N1C (stereo unspecified)	97 % of control
O=C(Nc1ccccc1)OCCOc1ccc(Cl)cc1Cl	96 % of control
CC(O)COc1ccc(OCc2ccccc2)cc1 (stereo unspecified)	106 % of control
O=C1NNC(=O)NN1	118 % of control
O=C(OCOC(=O)c1ccccc1)c1ccccc1	120 % of control
CCCCC(CC)CCC(O)CCC(CC)CC (stereo unspecified)	90 % of control
CNC(=O)Nc1ccccc1C(=O)NN	100 % of control
O=C(NC(Cc1ccccc1)C(=O)O)OCC1c2ccccc2-c2ccccc21 (stereo unspecified)	114 % of control
Cc1c(Cl)cccc1NC(=O)c1cccc(C(=O)Nc2cccc(Cl)c2C)c1	106 % of control
O=C(O)c1cccc2c(=O)c3ccccc3sc12	100 % of control
c1ccc(C2c3ccccc3C(c3ccccc3)(c3ccccc3)c3ccccc32)cc1	86 % of control
Clc1ccc(COC(Cn2ccnc2)c2ccc(Cl)cc2Cl)c(Cl)c1 (stereo unspecified)	96 % of control
CC(C)N(C(=O)Nc1ccccc1Cl)c1ccccc1	89 % of control
CCOc1ccccc1NC(=O)Nc1cccc2ccccc12	103 % of control
COc1cc(C(=O)N=Nc2c(O)[nH]c3ccc(Br)cc23)cc(OC)c1OC	86 % of control
O=C(Oc1ccc(Cl)cc1Cl)c1ccc([N+](=O)[O-])cc1	86 % of control
C1=CC2(OCCO2)C2CC=CC3(OCCO3)C2C1 (stereo unspecified)	97 % of control
CCCCNC(=O)Nc1cccc(C)c1C	88 % of control
